Values compiled from patent US9725442B2.

Target: CRTH2 (Homo sapiens (Human), UniProt Q9Y5Y4)
Sequence (Q9Y5Y4 whole entry): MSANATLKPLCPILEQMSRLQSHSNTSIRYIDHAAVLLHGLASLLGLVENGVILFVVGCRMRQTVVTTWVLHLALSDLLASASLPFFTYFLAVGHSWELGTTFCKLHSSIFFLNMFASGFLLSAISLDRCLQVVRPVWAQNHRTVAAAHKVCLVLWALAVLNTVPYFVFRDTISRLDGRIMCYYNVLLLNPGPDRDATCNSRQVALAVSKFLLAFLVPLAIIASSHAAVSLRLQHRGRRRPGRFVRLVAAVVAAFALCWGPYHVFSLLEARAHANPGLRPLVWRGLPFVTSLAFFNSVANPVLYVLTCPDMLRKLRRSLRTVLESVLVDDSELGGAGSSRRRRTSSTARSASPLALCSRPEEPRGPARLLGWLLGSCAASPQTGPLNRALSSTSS
Assay: CRTH2 receptor binding inhibitory activity ([3H]-PGD2 displacement, membranes of CRTH2-expressing K562 cell)
Details: CRTH2 receptor binding, [3H]-PGD2 displacement, membrane of CRTH2-expressing K562 cell; categorized AAAA/AAA; read-out: Ki
Overview of recorded Ki for various compounds

> print(dat)
                                   compound  reported.measurement
1  Cc1ccc2c(CC(=O)O)nn([C@H]3CN(S(=O)(=O)c4ccc(OC(F)F)cc4)C[C@H]3C)c2c1 [Compound I-110]              < 100 nM
2  CCOc1ccc(S(=O)(=O)N2C[C@@H](C)[C@@H](n3nc(CC(=O)O)c4ccccc43)C2)cc1[N+](=O)[O-] [Compound I-188]        100 to 5000 nM
3  CC(C)Oc1ccc(S(=O)(=O)N2C[C@H](n3nc(CC(=O)O)c4cc(Cl)ccc43)C[C@H]2C)cc1 [Compound I-15]              < 100 nM
4  C[C@@H]1CN(S(=O)(=O)c2ccc(OC(F)(F)F)cc2)C[C@@H]1n1nc(CC(=O)O)c2ccccc21 [Compound I-242]              < 100 nM
5  CC(C)Oc1ccc(S(=O)(=O)N2C[C@@H](C)[C@@H](n3cc(CC(=O)O)c4ccc(F)cc43)C2)cc1 [Compound I-144]              < 100 nM
6  CCOc1ccc(S(=O)(=O)N2C[C@@H](C)[C@@H](n3cc(CC(=O)O)c4ccc(C)cc43)C2)cn1 [Compound I-272]              < 100 nM

Look up Ki for this compound: Cc1ccc2c(CC(=O)O)nn([C@H]3CN(S(=O)(=O)C4CC4C(C)C)C[C@H]3C)c2c1 (stereo partly drawn) [Compound I-249] < 100 nM

Suppose we examine the compound CCOc1ccc(S(=O)(=O)N2C[C@H](n3nc(CC(=O)O)c4ccccc43)C[C@@H]2C#N)cc1 [Compound I-322] ; what Ki value has been reported? 100 to 5000 nM

Query: Ki; subject: CC(C)Oc1ccc(S(=O)(=O)N2C[C@H](n3nc(CC(=O)O)c4ccc(F)cc43)C[C@@]2(C)C#N)cc1 [Compound I-105] < 100 nM

Field request: Ki | item: CC(C)Oc1ccc(S(=O)(=O)N2C[C@@H](C)[C@H](n3nc(CC(=O)O)c4ccccc43)C2)cc1 [Compound I-199] 100 to 5000 nM

Reported Ki for CCc1ccc(S(=O)(=O)N2C[C@@H](C)[C@@H](n3nc(CC(=O)O)c4ccccc43)C2)cc1 [Compound I-243] : what is it? 100 to 5000 nM

Entry COC[C@@H]1C[C@@H](n2nc(CC(=O)O)c3ccc(F)cc32)CN1S(=O)(=O)c1ccc(OC(C)C)cc1 [Compound I-16] : reported Ki = ? < 100 nM

Sample CCOc1ccc(S(=O)(=O)N2C[C@@H](C)[C@@H](n3nc(CC(=O)O)c4ccccc43)C2)c(C(C)O)c1 (stereo partly drawn) [Compound I-312] — what was its Ki? < 100 nM

Look up Ki for this compound: CCOc1ccc(S(=O)(=O)N2C[C@@H](C)[C@@H](n3nc(CC(=O)O)c4ccccc43)C2)c(C#N)c1 [Compound I-200] < 100 nM

Query: Ki; subject: Cc1ccc(S(=O)(=O)N2C[C@H](n3c(C)c(CC(=O)O)c4ccccc43)C[C@@H]2C)cc1 [Compound I-318] 100 to 5000 nM

---

Assay: Metabolism stability test
Type: in vitro ADME
Conditions: human liver microsomes, 30 minutes, 37° C., NADPH, 0.5 μmol/L of the compound
observed-property: remaining rate after reaction (result heading prints '% inhibition') (%)

> print(dat)
                           structure.smiles  reported.measurement
1  CCOc1ccc(S(=O)(=O)N2C[C@@H](C)[C@@H](n3nc(CC(=O)O)c4ccccc43)C2)cn1                  99.3
2  CC(C)Oc1ccc(S(=O)(=O)N2C[C@H](n3nc(CC(=O)O)c4ccc(F)cc43)C[C@H]2CO)cc1                  98.7
3  C[C@@H]1CN(S(=O)(=O)c2ccc(Cl)cc2)C[C@@H]1n1nc(CC(=O)O)c2ccc(F)cc21                  94.7

---

Target: Human DP1 receptor (Homo sapiens (Human))
Test: Human DP1 inhibitory activity in DP1-expressing cell (PGD2-induced cAMP)
Type: cell-based
Details: category of cAMP IC50, human DP1 receptor expressing Jurkut cell
pIC50: −log10 of the molar value.
observed-property: pIC50

> print(dat)
                                   molecule  reported.measurement
1  CCOc1ccc(S(=O)(=O)N2C[C@@H](C)[C@@H](n3cc(CC(=O)O)c4ccc(C)cc43)C2)cn1 [Compound I-272]                > 7.00
2  CCOc1ccc(S(=O)(=O)N2C[C@@H](C)[C@@H](n3nc(CC(=O)O)c4ccc(F)cc43)C2)s1 [Compound I-169]                > 7.00
3  COc1ccc(S(=O)(=O)N2C[C@@H](C)[C@@H](n3nc(CC(=O)O)c4ccc(F)cc43)C2)s1 [Compound I-179]                > 7.00
4  CCOc1ccc(S(=O)(=O)N2C[C@@H](n3nc(CC(=O)O)c4ccccc43)[C@H](C)[C@H]2C#N)cc1 [Compound I-294]          5.30 to 7.00
5  CC(C)Oc1ccc(S(=O)(=O)N2CC[C@H](n3nc(CC(=O)O)c4ccc(F)cc43)C[C@H]2CO)cc1 [Compound I-72]          5.30 to 7.00
6  C=C[C@H]1C[C@@H](n2nc(CC(=O)O)c3ccc(F)cc32)CN1S(=O)(=O)c1ccc(OC(C)C)cc1 [Compound I-102]                > 7.00

Could you now consider this next molecule?
Which pIC50 is listed for CCOc1ccc(S(=O)(=O)N2C[C@@H](C)[C@@H](n3c(C)c(CC(=O)O)c4ccccc43)C2)cc1 [Compound I-329] ? > 7.00

---

Target: Human DP1 receptor (Homo sapiens (Human), UniProt Q13258)
Sequence (Q13258 whole entry): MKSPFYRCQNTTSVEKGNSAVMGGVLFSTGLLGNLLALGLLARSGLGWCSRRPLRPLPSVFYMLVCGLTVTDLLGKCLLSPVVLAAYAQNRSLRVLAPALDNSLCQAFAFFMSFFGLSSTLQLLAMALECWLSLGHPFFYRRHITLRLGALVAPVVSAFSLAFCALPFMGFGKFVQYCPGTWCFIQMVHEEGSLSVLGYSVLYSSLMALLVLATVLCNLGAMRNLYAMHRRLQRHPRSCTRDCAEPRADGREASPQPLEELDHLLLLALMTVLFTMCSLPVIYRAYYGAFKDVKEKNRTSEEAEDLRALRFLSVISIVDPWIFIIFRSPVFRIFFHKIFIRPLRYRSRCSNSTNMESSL
Assay: Human DP1 inhibitory activity in DP1-expressing cell (PGD2-induced cAMP)
Format: cell-based
Settings: category of cAMP IC50, human DP1 receptor expressing Jurkut cell
Documented IC50 across a set of compounds

> print(dat)
                           structure.smiles  reported.measurement
1  CO/N=C/[C@H]1C[C@@H](n2nc(CC(=O)O)c3ccc(F)cc32)CN1S(=O)(=O)c1ccc(OC(C)C)cc1              < 100 nM
2  C[C@@H]1C[C@@H](n2nc(CC(=O)O)c3ccc(F)cc32)CCN1S(=O)(=O)c1ccc(F)cc1        100 to 5000 nM
3  CC(C)Oc1ccc(S(=O)(=O)N2C[C@@H](C)[C@@H](n3nc(CC(=O)O)c4cc(Cl)ccc43)C2)cc1              < 100 nM

What value of IC50 has been recorded for this entry: C[C@@H]1CN(S(=O)(=O)c2ccc(F)cc2)C[C@@H]1n1nc(CC(=O)O)c2ccc(F)cc21 100 to 5000 nM

Record request: IC50 value, item C[C@H]1CN(S(=O)(=O)c2ccc(OC(F)F)cc2)C[C@@H]1n1nc(CC(=O)O)c2ccccc21 100 to 5000 nM

---

Quick reference for difference in IC50 with vs without preincubation among some molecules
Target: CYP3A4 enzyme expressed in Escherichia coli (Homo sapiens (Human))
Sequence (P08684 whole entry): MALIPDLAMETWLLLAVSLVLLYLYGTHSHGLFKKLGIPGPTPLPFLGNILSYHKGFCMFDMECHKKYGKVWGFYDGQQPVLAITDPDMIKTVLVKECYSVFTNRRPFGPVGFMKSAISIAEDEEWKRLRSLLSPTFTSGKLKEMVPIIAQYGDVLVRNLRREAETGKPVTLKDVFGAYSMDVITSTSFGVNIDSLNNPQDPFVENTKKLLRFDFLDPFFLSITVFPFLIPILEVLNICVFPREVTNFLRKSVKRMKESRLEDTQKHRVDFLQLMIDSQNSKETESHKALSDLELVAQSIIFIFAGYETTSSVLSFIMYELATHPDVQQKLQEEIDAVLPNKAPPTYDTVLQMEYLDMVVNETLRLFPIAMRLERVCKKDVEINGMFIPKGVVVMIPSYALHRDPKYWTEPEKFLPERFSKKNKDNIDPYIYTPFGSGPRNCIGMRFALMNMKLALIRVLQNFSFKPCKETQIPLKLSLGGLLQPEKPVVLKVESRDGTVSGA
Assay: CYP3A4 fluorescent MBI test
Type: in vitro ADME
Conditions: pre-reaction time 0 or 30 minutes, substrate 7-BFC; read-out: CYP3A4 MBI, difference between IC50 values with and without preincubation

> print(dat)
                                   molecule  reported.measurement
1  CC(C)Oc1ccc(S(=O)(=O)N2C[C@@H](C)[C@@H](n3nc(CC(=O)O)c4ccc(F)cc43)C2)cc1 [Compound I-37]                ≤ 3 µM
2  CCOc1ccc(S(=O)(=O)N2C[C@@H](C)[C@@H](n3nc(CC(=O)O)c4ccccc43)C2)cn1 [Compound I-96]                ≤ 3 µM

Kindly review the next molecule as well.
Item: Cc1c(CC(=O)O)c2ccccc2n1[C@H]1CN(S(=O)(=O)c2ccc(F)cc2)C[C@H]1C [Compound I-287] Test system: CYP3A4 enzyme expressed in Escherichia coli (Homo sapiens (Human)) Read-out: difference in IC50 with vs without preincubation Value: ? ≤ 3 µM
